Biological target: pooled human IgG (human IgG1,2,3 and 4)
endpoint label: Enzyme Activity Endpoint Assay: Fab′2

protein	endpoint label	reported value
PRT-89 (protein) MANQEIRYSEVTPYHVTSVWTKGVTPPAKFTQGEDVFHAPYVANQGWYDITKTFNGKDDLLCGAATAGNMLHWWFDQNKEKIEAYLKKHPEKQKIMFGDQELLDVRKVINTKDDQTNSELFNYFRDKAFPGLSARRLGVMPDLVLDMFINGYYLNVYKTQTTDVNRTYQEKDRRGGIFDAVFTRGDQSKLLTSRHDFKEKNLKEISDLIKKELTEGKALGLSHTYANVRINHVINLWGADFDSNGNLKAIYVTDSDSNASIGMKKYFVGVNSAGKVAISAKEIKEDNIGAQVLGLFTLSTGQDIWNQTN	Enzyme Activity Endpoint Assay: Fab′2	45 ng/µL

Note: attention shifts to another entry.
# protein PRT-307 (protein) MQITSVWTKGVTPLTPEQFRKNNEDVIHAPYLAHQGWYDITKAFDGKDNLLCGAATAGNMLHWWFDQNKTEIEAYLSKHPEKQKIIFNNQELFDLKAAIDTKDSQTNSQLFNYFRDKAFPNLSARQLGVMPDLVLDMFINGYYLNVGKTQSTDVNRPYQDKDKRGGIFDAVFTRGDQTTLLTARHDLKNKGLNDISTIIKQELTEGRALALSHTYANVSISHVINLWGADFNAEGNLEAIYVTDSDANASIGMKKYFVGRNAHGHVAISAKKIEGENIGAQVLGLFTLSSGKDIWQKLS ; its Enzyme Activity Endpoint Assay: Fab′2 = 215 ng/µL
